Just for reference, patent US20190263905A1 is where these values come from.

Molecular target: T1, Antigen CD66c (CEACAM6; Sino Biological, Inc.) (UniProt P40199 35-320)
T1 construct: Bought antigen coated on the ELISA plate; construct not described; also called CD66c antigen; CECACAM6
T1 sequence (looked up): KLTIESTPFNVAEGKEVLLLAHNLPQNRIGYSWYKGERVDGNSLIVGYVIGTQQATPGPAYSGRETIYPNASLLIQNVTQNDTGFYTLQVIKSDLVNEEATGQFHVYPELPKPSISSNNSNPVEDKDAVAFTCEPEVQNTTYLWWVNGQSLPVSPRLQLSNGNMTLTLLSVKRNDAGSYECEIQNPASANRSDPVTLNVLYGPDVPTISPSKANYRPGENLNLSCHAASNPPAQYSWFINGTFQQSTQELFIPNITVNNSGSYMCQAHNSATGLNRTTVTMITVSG
Test: ELISA, coated CEACAM6 100 ng/well, antibody 13.72 ng/ml
endpoint_label: OD 450 nm (OD)
Unit OD implied. Number only.

Input line: Answer with the recorded OD 450 nm for the binder listed here: anti-CD66c chimeric antibody 8F5 (antibody, human IgG1, V domains shown, also called chimeric 8F5 antibody; chi 8F5) VH: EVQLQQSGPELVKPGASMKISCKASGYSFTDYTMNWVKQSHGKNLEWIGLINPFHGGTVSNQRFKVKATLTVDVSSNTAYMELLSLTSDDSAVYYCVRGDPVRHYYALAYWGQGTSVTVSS VL: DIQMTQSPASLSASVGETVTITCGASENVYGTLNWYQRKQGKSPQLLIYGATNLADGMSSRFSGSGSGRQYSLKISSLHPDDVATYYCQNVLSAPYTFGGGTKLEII
Output line: 1.15

Input line: Answer with the recorded OD 450 nm for the binder listed here: recombinant humanized anti-CD66c antibody Protein ID 3019 (Vk7 + VH10) (antibody, human IgG1, V domains shown, also called hu 3019; #51) VH: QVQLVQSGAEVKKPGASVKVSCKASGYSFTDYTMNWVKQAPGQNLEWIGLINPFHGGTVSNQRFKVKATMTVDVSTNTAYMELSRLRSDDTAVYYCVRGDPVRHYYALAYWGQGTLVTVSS VL: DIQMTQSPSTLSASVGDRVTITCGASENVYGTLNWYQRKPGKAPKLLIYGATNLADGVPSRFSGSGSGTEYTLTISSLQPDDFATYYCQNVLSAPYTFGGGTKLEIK
Output line: 1.77
